Experiment: in vitro
Settings: human, hela cells, % viability
Hi there, I'd appreciate the recorded viability at 28.5 h, 10 µM for every entry that follows.
Provide the reading as a plain figure in %.

Can you share its viability at 28.5 h, 10 µM? I mean this compound: COCCNC(=O)CN(C)c1nc(-c2ccncc2)nc2ccccc12
94.2

How about this compound: COc1ccc(-c2cc(C(=O)Nc3cnc4ccccc4c3)cnc2-c2cccc(C)c2)cn1
89.8

How about this compound: CC(Cc1ccccn1)NC(=O)c1cc(-c2ccccc2F)no1 (centres unmarked)
91.1

How about this compound: Cc1nn(C(C)CC(=O)O)c(C)c1Br (centres unmarked)
91.7

How about this compound: O=C(O)CCCC(=O)NCc1cccnc1
106

How about this compound: CCN1C(=O)/C(=C\NN=C2CCCC2)c2ccc(C3=NNC(=O)CC3)cc21
88.1

How about this compound: O=C(O)c1ccc(/C=N/Nc2nc(N3CCOCC3)nc(N3CCOCC3)n2)cc1
99

How about this compound: CC(=O)Nc1ccc(S(=O)(=O)N2CCN(c3ccc([N+](=O)[O-])cc3C(F)(F)F)CC2)cc1
112

How about this compound: CCn1nc(C)cc1C(=O)N1Cc2cnn(Cc3ccc(F)cc3)c2C1
96.7

How about this compound: O=C1N[C@@H](Cc2ccc(F)cc2)C(=O)N2CCN(C(=O)c3cccc(F)c3)C[C@H]12
111

How about this compound: Cc1cccc(NS(=O)(=O)c2ccc(I)cc2)n1
87

How about this compound: CCOCCN1CCC(C(=O)NC(c2ccc(F)cc2)c2nc(OC)cc(OC)n2)CC1 (centres unmarked)
98

How about this compound: COC(=O)c1cn(C(=O)CCCN2C(=O)c3ccccc3C2=O)c2ccccc12
91.7

How about this compound: CC(C)(C)OC(=O)Nc1ccc2c(ccn2CCN2CCOCC2)c1
95

How about this compound: CN(C)CCN(Cc1ccccn1)c1ncccn1
116

How about this compound: O=C(Nc1ccccc1)c1ccc(-c2ccccc2)cc1
107

How about this compound: CCc1cccc2c(/C=C3/SC(=S)N(CC(=O)O)C3=O)c[nH]c12
94

How about this compound: COc1ccc(/C=C/C(=O)O)cc1S(=O)(=O)NCc1ccccc1
87.9

How about this compound: Cc1ccc(NC(=O)c2nc3ccccc3[nH]2)c(C)n1
94.4

How about this compound: CC1(C)CC(=O)c2cnc3ncnn3c2C1
110

###

Hi there, I'd appreciate the recorded viability at 28.5 h, 10 µM for every entry that follows.
Experiment: in vitro
Details: human, hela cells, % viability
Record the result as number plus unit.

Can you share its viability at 28.5 h, 10 µM? I mean this compound: CC1CCCCN1C(=O)CCn1c(-c2cccnc2)cc2cccnc21 (stereo not shown) [CBK282692]
97.1%

How about this compound: O=C(Nc1cc2ccccc2c(Br)n1)C(F)(F)F [CBK063301]
82%

How about this compound: O=C(Nc1ccc(OC(F)(F)F)cc1)N1CCN(Cc2ccc3c(c2)OCO3)CC1 [CBK074754]
99.5%

How about this compound: O=C(Nc1ccc2n(c1=O)C[C@@H]1CNC[C@H]2C1)c1ccncc1 [CBK289177]
107%

How about this compound: O=C(CCCn1ccnc1)Nc1ccc(N2CCCCC2)c(F)c1 [CBK281385]
81.1%

How about this compound: Cc1csc(C(Cc2ccsc2)NC(=O)CCn2cccn2)n1 (stereo not shown) [CBK285149]
93.7%

How about this compound: CCn1nc(C)c(-c2cncn2CCCOc2ccccc2C)c1C [CBK281761]
99.7%

How about this compound: CN(C)c1ccc(C(=O)N2CCC(c3cc4cnccc4[nH]3)CC2)cc1 [CBK283446]
83.8%

How about this compound: O=C(Nc1ccc2c(c1)C(=O)NC2=O)c1ccccc1 [CBK270384]
86.5%

How about this compound: Cn1nc(-c2ccc(F)cc2)cc1C(=O)NCCn1ccnc1 [CBK281576]
87.8%

###

Assay: in vitro
Settings: human, hela cells, % viability
Please assign No whenever viability at 28.5 h, 10 µM is at or above 90%, and Yes whenever it is below.

Record COc1ccccc1CCNC(=O)N1CCC(Oc2cccnc2)CC1 [CBK307615] : is its viability at 28.5 h, 10 µM strictly below 90%?
No

How about this compound: COCC(=O)N[C@H]1C[C@H]2C(=O)Nc3ccc(-c4cccs4)cc3C(=O)N2C1 [CBK289358]
No

How about this compound: CCS(=O)(=O)Nc1cc(C(F)(F)F)ccc1Cl [CBK111339]
No

How about this compound: COc1cccc(NC(=O)N(CCCO)C2CCc3ccccc32)c1 (stereo not shown) [CBK305397]
No

How about this compound: O=C(O)CCCNS(=O)(=O)/C=C/c1ccccc1 [CBK287170]
Yes

How about this compound: COC(=O)c1ccccc1OC(=O)COc1ccc(Cl)cc1Br [CBK268733]
Yes

How about this compound: COC(=O)c1sc2ncccc2c1NS(=O)(=O)c1cc(Br)c(Cl)s1 [CBK049973]
No

How about this compound: NC1=C2NC(c3cccc(C(=O)O)c3)=NN2N(c2ccccc2)N1 [CBK093663]
No

###

Hi there, I'd appreciate the recorded viability at 28.5 h, 10 µM for every entry that follows.
Assay: in vitro
Details: human, hela cells, % viability
Provide the reading as a plain figure in %.

Can you share its viability at 28.5 h, 10 µM? I mean this molecule: CC(=O)Nc1cccc(-c2nccnc2NS(C)(=O)=O)c1 [CBK050740]
108

How about this molecule: Cc1ccc(S(=O)(=O)CC(=O)Nc2nc3ccc(C)cc3s2)cc1 [CBK287705]
89.8

How about this molecule: CC(C)(Oc1ccc(Cl)cc1)C(=O)Nc1ccc(CN2C(=O)CNC2=O)cc1 [CBK296668]
103

How about this molecule: CCCOc1ccc(-c2cc(C(=O)NO)n[nH]2)cc1C [CBK288362]
61.3

How about this molecule: O=C(Nc1nnc(C(F)(F)F)s1)c1cc(Cl)ccc1Cl [CBK095734]
86.3

How about this molecule: CCOc1ccccc1NC(=O)c1ccc(CS(=O)(=O)c2ccc(C)cc2)cc1 [CBK268572]
95.1

How about this molecule: N#Cc1c(NC(=O)CSc2nc(=O)cc(N)n2CCc2ccccc2)sc2c1CCCC2 [CBK293993]
82.4

How about this molecule: O=c1[nH]c2cccc3c2n1C[C@H](NCCc1ccccc1)C3 [CBK016688C]
105

How about this molecule: CCC(C)(C)c1ccc(S(=O)(=O)N2CCN(Cc3ccc(O)c(F)c3)CC2)cc1 [CBK062968]
91.7

###

Assay: in vitro
Settings: human, hela cells, % viability
Observed property: viability at 28.5 h, 10 µM
Record the result as number plus unit.

Can you share its viability at 28.5 h, 10 µM? I mean this molecule: COc1ccc(CCNC(=O)C2CCN(S(=O)(=O)c3ccccc3)CC2)cc1
95%

How about this molecule: CCOC(=O)c1c(NS(=O)(=O)Cc2ccccc2[N+](=O)[O-])sc2c1CCCC2
95.8%

How about this molecule: O=C(CSCc1ccc([N+](=O)[O-])cc1)Nc1ccc(O)cc1C(=O)O
89.4%

How about this molecule: COc1cc(/C=C2\C(=O)NN(c3ccccc3)C2=O)ccc1OCCOc1cc(C)ccc1C
80.5%

How about this molecule: CN(Cc1ccccc1)c1nccnc1-c1ccccc1F
95%

How about this molecule: N#Cc1ccccc1CSc1nc(N)cc(O)n1
98.3%

How about this molecule: CCc1cc(C(=O)NC(Cn2ccnc2)C(C)(C)C)cc(=O)[nH]1 (centres unmarked)
101%

How about this molecule: Nc1ncnc2sc3c(c12)CCC3
89.7%

How about this molecule: Cc1ncccc1-c1cc2cccnc2n1CCCNC(=O)C1CC1C (centres unmarked)
101%

How about this molecule: COc1ccc(N2CCN(c3cc(-c4cccc([N+](=O)[O-])c4)ncn3)CC2)cc1OC
86.4%

How about this molecule: NS(=O)(=O)c1ccc(/N=C/c2cccc(OCc3ccccc3)c2)cc1
92.1%

How about this molecule: CN(CCN1CCCCC1)C(=O)c1ccccc1Cn1cccn1
105%

How about this molecule: COC(=O)c1oc(-c2ccc(OC)cc2)c(-c2ccc(OC)cc2)c1C(N)=O
98.7%

How about this molecule: CCn1cc(-c2cncn2CCCOc2cccc(C)c2)cn1
90.5%

How about this molecule: COc1ccc(Cl)cc1NC(=O)NC(=O)C1CCN(CCOc2cccc3ccccc23)CC1
90.9%

How about this molecule: c1ccc(CCN2CCCN(c3ccnc(OCCN4CCOCC4)n3)CC2)cc1
89.3%

How about this molecule: COc1cccc(CN2CC=CCC(C3CCN(c4nc(C)cc(C)n4)CC3)C2=O)c1 (centres unmarked)
85.6%

How about this molecule: FC(F)(F)c1ccnc(SCCOc2ccccc2)n1
73.9%

How about this molecule: Cc1cc(N2C(=O)NS(=O)(=O)c3cccnc32)ccc1F
90.5%

How about this molecule: CCC(C)NC(=O)Cn1c(C2CCCNC2)cc2cccnc21 (centres unmarked)
109%
